# Method description: Selectivity index, ratio of CC50 for cytotoxicity against LPS-stimulated mouse RAW264.7 cells to MIC50 for antitubercular activity against Mycobacterium tuberculosis M299
# Assay type: toxicity, cell-based
# Assay context: LPS-stimulated RAW264.7 cells, read-out: Selectivity Index
Metric name: selectivity ratio

The following compounds have reported results that may help.
{"columns": ["Structure as smiles", "selectivity ratio"],
 "data": [
  ["COc1cc(NC(=S)NCCc2ccccc2)cc(OC)c1OC", "≥ 8.1"],
  ["S=C(NCc1ccccc1)Nc1ccc2c(c1)OCCO2", "≥ 17.7"],
  ["O=C(O)c1ccc(NC(=S)NCc2ccccc2)cc1O", 8],
  ["CC(C)c1ccc(NC(=S)NCc2ccccc2)cc1", 15.5]
]}

Proceeding to the next compound to report its selectivity ratio.
Note selectivity ratio for the compound shown: O=C(NNC(=S)NCc1ccccc1)c1ccncc1
13.5
